Target system: D2SR (Homo sapiens, UniProt P14416)
Sequence (P14416 1-414 isoform P14416-2): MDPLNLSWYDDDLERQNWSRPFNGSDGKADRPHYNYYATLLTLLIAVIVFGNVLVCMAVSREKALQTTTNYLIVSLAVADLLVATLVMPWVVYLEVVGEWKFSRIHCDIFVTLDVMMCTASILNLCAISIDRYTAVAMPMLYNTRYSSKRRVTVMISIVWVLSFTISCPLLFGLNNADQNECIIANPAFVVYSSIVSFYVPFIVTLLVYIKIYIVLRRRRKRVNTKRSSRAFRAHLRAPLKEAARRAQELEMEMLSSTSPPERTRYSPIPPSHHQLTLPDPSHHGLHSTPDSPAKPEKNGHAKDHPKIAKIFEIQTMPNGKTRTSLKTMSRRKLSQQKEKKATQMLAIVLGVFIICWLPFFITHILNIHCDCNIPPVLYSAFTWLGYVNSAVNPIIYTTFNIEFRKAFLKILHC
Test summary: Radioligand competition, [3H]spiperone, CHO cell membranes
pKi: −log10 of the molar value.
// reported pKi for each item listed

Smi | pKi
CCCN(CCCCc1cn(-c2ccc(C(=O)NCCCNS(=O)(=O)c3cccc4c(N(C)C)cccc34)cc2)nn1)C1Cc2ccccc2C1 | 9.36
N#Cc1ccc(-n2cc(CCCCN3CCN(c4cccc(Cl)c4Cl)CC3)nn2)cc1 | 8.20
CN(C)c1cccc2c(S(=O)(=O)NCc3ccc(-n4cc(CCCCN5CCN(c6cc(C(F)(F)F)nc(C(C)(C)C)n6)CC5)nn4)cc3)cccc12 | 5.22
COc1ccccc1N1CCN(CCCCc2cn(-c3ccc(CNS(=O)(=O)c4cccc5c(N(C)C)cccc45)cc3)nn2)CC1 | 8.08
